# credit: ChEMBL document CHEMBL1156251

Measured IC50, listed per entry.
measurementTarget: Lipopolysaccharide (LPS)
assayProtocol: Displacement of dansyl-PMB from LPS by isothermal titration calorimetry
Your answer should be a plain number; it is taken to be in µM.

INPUT: Returns the measured IC50 for the input compound. Input: `CCCCCCCC(=O)N[C@@H](CCN)C(=O)N[C@H](C(=O)N[C@@H](CCN)C(=O)N[C@H]1CCNC(=O)[C@H]([C@@H](C)O)NC(=O)[C@H](CCN)NC(=O)[C@H](CCN)NC(=O)[C@H](CC(C)C)NC(=O)[C@@H](C)NC(=O)[C@H](CCN)NC1=O)[C@@H](C)O`
OUTPUT: 6

// next entry
INPUT: Consider the compound `CCCCCCCC(=O)N[C@@H](CCN)C(=O)N[C@H](C(=O)N[C@@H](CCN)C(=O)N[C@H]1CCNC(=O)[C@H]([C@@H](C)O)NC(=O)[C@H](CCN)NC(=O)[C@H](CCN)NC(=O)CNC(=O)[C@@H](Cc2ccccc2)NC(=O)[C@H](CCN)NC1=O)[C@@H](C)O` and give its measured IC50.
OUTPUT: 11

----------
System: Escherichia coli
assayProtocol: Antimicrobial activity against Escherichia coli
Assay type: functional
Where a SMILES comes first, the peptide text is derived from it. Bridges are numbered along the chain shown (N, C = ends). [ ]: non-standard residue; d: D form. The star is where a group is joined. Octanoyl = CCCCCCCC(=O)*; Dab = NCC[C@H](N)C(=O)O
# reported log10 of MIC; entries follow
Units before log transform: µM; reported quantity: MIC; transform: log10.

INPUT: Query (compound): `CC(=O)N[C@H](C(=O)N[C@@H](CCN)C(=O)N[C@H]1CCNC(=O)[C@H]([C@@H](C)O)NC(=O)[C@H](CCN)NC(=O)[C@H](CCN)NC(=O)[C@H](CC(C)C)NC(=O)[C@@H](CC(C)C)NC(=O)[C@H](CCN)NC1=O)[C@@H](C)O` ; field requested: log10 of MIC
OUTPUT: 2.11

INPUT: What does the record list as log10 of MIC for `CCCCCCCC(=O)N[C@@H](CCN)C(=O)N[C@H](C(=O)N[C@@H](CCN)C(=O)N[C@H]1CCNC(=O)[C@H]([C@@H](C)O)NC(=O)[C@H](CCN)NC(=O)[C@H](CCN)NC(=O)[C@H](CC(C)C)NC(=O)[C@H](Cc2ccccc2)NC(=O)[C@H](CCN)NC1=O)[C@@H](C)O` ?
OUTPUT: 0.30

INPUT: Which log10 of MIC value is on record for CCCCCCCC(=O)N[C@@H](C)C(=O)N[C@H](C(=O)N[C@@H](CCN)C(=O)N[C@H]1CCNC(=O)[C@H]([C@@H](C)O)NC(=O)[C@H](CCN)NC(=O)[C@H](CCN)NC(=O)[C@H](CC(C)C)NC(=O)[C@@H](Cc2ccccc2)NC(=O)[C@H](CCN)NC1=O)[C@@H](C)O (Octanoyl-AT[Dab][Dab][Dab][dF]L[Dab][Dab]T; lactam 4-C) ?
OUTPUT: 0.30

INPUT: Reported log10 of MIC for `CC(C)C[C@@H]1NC(=O)[C@@H](CC(C)C)NC(=O)[C@H](CCN)NC(=O)[C@@H](NC(=O)[C@H](CCN)NC(=O)[C@@H](NC(=O)[C@H](CCN)NC(=O)CC23CC4CC(CC(C4)C2)C3)[C@@H](C)O)CCNC(=O)[C@H]([C@@H](C)O)NC(=O)[C@H](CCN)NC(=O)[C@H](CCN)NC1=O` : what is it?
OUTPUT: 0.30

INPUT: What measured log10 of MIC goes with `CCCCCCCC(=O)N[C@@H](CCN)C(=O)N[C@H](C(=O)N[C@@H](CCN)C(=O)N[C@H]1CCNC(=O)[C@@H]([C@@H](C)O)NC(=O)[C@H](CCN)NC(=O)[C@H](CCN)NC(=O)[C@H](CC(C)C)NC(=O)[C@@H](Cc2ccccc2)NC(=O)[C@H](CCN)NC1=O)[C@@H](C)O` ?
OUTPUT: -0.30

---
INPUT: Value lookup for log10 of MIC; key = CC(C)C[C@@H]1NC(=O)[C@@H](Cc2ccccc2)NC(=O)[C@H](CCN)NC(=O)[C@@H](NC(=O)[C@H](CCN)NC(=O)[C@@H](NC(=O)[C@H](C)NC(=O)[C@@H](C)NC(=O)[C@H](C)N)[C@@H](C)O)CCNC(=O)[C@H]([C@@H](C)O)NC(=O)[C@H](CCN)NC(=O)[C@H](CCN)NC1=O [DESFA-[ALA-ALA-ALA1]POLYMYXIN B]
OUTPUT: 1.81

INPUT: Which measured log10 of MIC value corresponds to `CC(C)C[C@@H]1NC(=O)[C@@H](Cc2ccccc2)NC(=O)[C@H](CCN)NC(=O)[C@@H](NC(=O)[C@H](CCN)NC(=O)[C@@H](NC(=O)[C@H](CCN)NC(=O)c2ccc3ccccc3c2)[C@@H](C)O)CCNC(=O)[C@H]([C@@H](C)O)NC(=O)[C@H](CCN)NC(=O)[C@H](CCN)NC1=O` ?
OUTPUT: 0.60

INPUT: Which log10 of MIC is listed for CCCCCCCC(=O)N[C@@H](CCN)C(=O)N[C@H](C(=O)N[C@@H](CCN)C(=O)N[C@H]1CCNC(=O)[C@H]([C@@H](C)O)NC(=O)[C@H](CCN)NC(=O)[C@H](CCN)NC(=O)CNC(=O)CNC(=O)[C@H](CCN)NC1=O)[C@@H](C)O (Octanoyl-[Dab]T[Dab][Dab][Dab]GG[Dab][Dab]T; lactam 4-C) ?
OUTPUT: 2.41
